# Test system: Male C57BL/6 Cr mice
# measurement_description: Test Case 10: mouse piloerection test
# Assay type: in vivo
# assay_setup: 10 mg/kg i.v., n=4, observation time 5 min, Score 0
outcome_measure: number of experimental animals matching Score 0 (no piloerection)

{"columns": ["compound", "reported"],
 "data": [
  ["Cc1n[nH]c2cc(OCCNC[C@H](O)c3cccc(NS(=O)(=O)c4cnn(C)c4)c3)ccc12 [ex79]", 3],
  ["COc1n[nH]c2cc(OCCNC[C@H](O)c3cccc(NS(=O)(=O)c4ccccc4F)c3)ccc12 [ex5]", 2],
  ["CCc1n[nH]c2cc(OCCNC[C@H](O)c3cccc(NS(=O)(=O)C4CC4)c3)ccc12 [ex124]", 2],
  ["O=S(=O)(Nc1cccc([C@@H](O)CNCCOc2ccc3c(OC(F)F)n[nH]c3c2)c1)c1cn[nH]c1 [ex113]", 4]
]}
